- System: LOX IMVI melanoma
- METHOD DESCRIPTION: NCI tumour cell line growth inhibition, 48 h
Lab note: anything with TGI at or over 20 µM counts as T; the rest go in F.

Worked cases, answers included:
Cc1cccc(N=C/C=C(\Cl)c2ccc3ccccc3c2)c1 = F
CC(=O)SC(SC(C)=O)SC(C)=O = T

Determine whether this compound has TGI no lower than 20 µM: `CCCCOC(=O)NC(Nc1ccc(S(=O)(=O)Nc2ncccn2)cc1)(C(F)(F)F)C(F)(F)F`
T

Hi team, for O=C(Cc1ccccc1)N/N=C(/c1nc2ccc([N+](=O)[O-])cc2[nH]c1=O)C(O)c1ccccc1Cl (configuration not stated) , is the recorded TGI at or above 20 µM?
T

Reported TGI reaches at least 20 µM for COc1ccc(-n2c(Cn3nnc(-c4cccnc4)n3)nn(C3OC(COC(=O)c4ccccc4)C(OC(=O)c4ccccc4)C3OC(=O)c3ccccc3)c2=S)cc1 (configuration not stated) ?
T

Given `CCCCCCCCCC/C=C/C=O` , state whether its TGI is at least 20 µM.
T
